Entries and their IC50
- System Tested: human ERβ (Homo sapiens, UniProt Q92731)
- Construct: M214-Q530 of human ERβ; Flag (C)
- Sequence (Q92731 214-530): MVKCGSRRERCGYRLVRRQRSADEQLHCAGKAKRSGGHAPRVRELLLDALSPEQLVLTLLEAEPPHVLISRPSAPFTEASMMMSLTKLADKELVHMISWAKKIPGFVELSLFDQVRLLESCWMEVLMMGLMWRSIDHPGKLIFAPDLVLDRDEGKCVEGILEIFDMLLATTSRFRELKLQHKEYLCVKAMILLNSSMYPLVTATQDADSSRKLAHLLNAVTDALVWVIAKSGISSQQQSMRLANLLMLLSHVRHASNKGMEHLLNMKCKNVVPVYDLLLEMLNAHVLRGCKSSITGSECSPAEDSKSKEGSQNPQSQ
- Test Description: Radioligand binding competition with [3H]-17β-estradiol, ERβ
- Assay Context: human ERβ ligand binding domain, E. coli lysate, read-out: ER-β IC50
Readout Name: IC50 (nM)

INSERT INTO measurements (compound, readout_name, units_label, quantitative_readout) VALUES
  ('CCCc1cc(-c2noc3cc(O)ccc23)c(CC(C)C)cc1O [Example 4]', 'IC50', 'nM', 20),
  ('Oc1ccc(-c2noc3c(Br)cc(O)cc23)cc1 [Example 13]', 'IC50', 'nM', 208),
  ('Oc1ccc(O)c(-c2noc3cc(O)ccc23)c1 [Example 10]', 'IC50', 'nM', 254);

* * *

- System Tested: human ERα (Homo sapiens)
- Construct: amino acids M250-V595 of human ERα; His (N)
- Sequence (P03372 250-595): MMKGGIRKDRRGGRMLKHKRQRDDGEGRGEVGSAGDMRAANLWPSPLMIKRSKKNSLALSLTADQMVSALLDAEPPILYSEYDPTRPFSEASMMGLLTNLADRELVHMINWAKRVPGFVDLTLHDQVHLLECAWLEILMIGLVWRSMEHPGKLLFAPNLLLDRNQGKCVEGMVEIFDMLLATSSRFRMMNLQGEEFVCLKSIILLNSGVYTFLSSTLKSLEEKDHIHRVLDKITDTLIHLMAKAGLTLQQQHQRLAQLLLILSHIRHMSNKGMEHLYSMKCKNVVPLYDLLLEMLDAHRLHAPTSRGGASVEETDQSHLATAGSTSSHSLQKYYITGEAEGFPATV
- Test Description: Radioligand binding competition with [3H]-17β-estradiol, ERα
- Assay Context: human ERα ligand binding domain, E. coli lysate, read-out: ER-α IC50
pIC50: −log10 of the molar value.
Listing of recorded pIC50 by entry.
Readout Name: pIC50

INSERT INTO results (mol_smiles, system_tested, quantitative_readout) VALUES
  ('Oc1ccc2c(-c3ccccc3O)noc2c1', 'human ERα (Homo sapiens)', 5.30),
  ('Oc1ccc(-c2noc3c(Br)cc(O)cc23)cc1', 'human ERα (Homo sapiens)', 5.70),
  ('Oc1ccc(O)c(-c2noc3cc(O)ccc23)c1', 'human ERα (Homo sapiens)', 5.52),
  ('CCCc1cc(-c2noc3cc(O)ccc23)c(CC(C)C)cc1O', 'human ERα (Homo sapiens)', 7.42);
